# System: RARb homodimer (NR concentration 270 nM)
# procedure_summary: PBM binding z-score (relative to random genomic background probes); higher = stronger binding; sequences stand for … in GC…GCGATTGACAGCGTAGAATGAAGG
Rule: PBM binding z-score of 0.7 or more gives criterion met; anything lower gives criterion not met.

# seq, assay_target, category_label
rows = [
    ("CAAACTAGGTCAAGGTCGAAGTCGGTTTGTGCCA", "RARb homodimer (NR concentration 270 nM)", "criterion met"),
    ("GCTATTAGTTGATAGGGCAACCGAATGATTCTCG", "RARb homodimer (NR concentration 270 nM)", "criterion not met"),
]

Would you say "AGAACGAGGGCACGCTGAGTTGAGAGCAGAGTAG" shows PBM binding z-score at minimum 0.7?
criterion met

Would you say "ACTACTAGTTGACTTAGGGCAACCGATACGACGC" shows PBM binding z-score at minimum 0.7?
criterion met

Would you say "TATACAGGGTCAACGGCCAGAGTACGAATGTCGA" shows PBM binding z-score at minimum 0.7?
criterion met

Would you say "CAAACGAGGGCATGAGTTGATAGCAAATGCCGAT" shows PBM binding z-score at minimum 0.7?
criterion met

Would you say "ATCGAAAGGTCGAAGGCGAGTATACCCACCCGAA" shows PBM binding z-score at minimum 0.7?
criterion met

Would you say "CCTAGTTGGTCGAGGTCACACACGCTATAGGTAC" shows PBM binding z-score at minimum 0.7?
criterion met

Would you say "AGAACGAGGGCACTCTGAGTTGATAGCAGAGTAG" shows PBM binding z-score at minimum 0.7?
criterion not met

Would you say "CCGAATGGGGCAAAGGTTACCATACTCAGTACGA" shows PBM binding z-score at minimum 0.7?
criterion met

Would you say "GCGACTGGGGCATCAGCACGTTACCATAACTTAA" shows PBM binding z-score at minimum 0.7?
criterion not met

----------
# System: RARa:RXR (NR concentration 270 nM, RXRa partner concentration 90 nM)
# procedure_summary: PBM binding z-score (relative to random genomic background probes); higher = stronger binding; sequences stand for … in GC…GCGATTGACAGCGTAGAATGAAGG
Consider the following partition of reported PBM binding z-score into named classes: low band (below 0.6), middle band (0.6 to below 4), high band (4 or more)

Past entries and their recorded results:
# seq, category_label
rows = [
    ("ATAACGAGGGCACGCTGAGTTGATAGCAGAGTAG", "middle band"),
    ("ACTATTAGTTAAGACGAGGGCAACCGATAGGTTG", "middle band"),
    ("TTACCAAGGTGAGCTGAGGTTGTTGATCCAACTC", "low band"),
]

Sort into band: "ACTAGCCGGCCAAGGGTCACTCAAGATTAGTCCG"
middle band

Sort into band: "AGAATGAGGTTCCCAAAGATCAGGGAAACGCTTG"
low band

Sort into band: "AATCCAGGGTCATCGTAGGCCAGAGTACGCACAG"
high band

Sort into band: "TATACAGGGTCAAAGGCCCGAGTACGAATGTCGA"
high band

Sort into band: "ATACCAAGGGGATCGTGAGGTCGTTGATACTAAC"
middle band

Sort into band: "TCATATAAGTAAACAGGTGAAAGTCCGTAAGTTA"
middle band

Sort into band: "TCTTGTAGATCAGCAGGTTAAGAAGGCTGGCCAA"
middle band

----------
# Test system: PXR homodimer (NR concentration 270 nM)
# procedure_summary: PBM binding z-score (relative to random genomic background probes); higher = stronger binding; sequences stand for … in GC…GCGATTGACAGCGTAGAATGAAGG
property_measured: PBM binding z-score
Give the value as a plain number.

# seq, measurement
rows = [
    ("ATCGAAAGGTCGACGAGGTGACTATACACCGTTT", 0.829),
    ("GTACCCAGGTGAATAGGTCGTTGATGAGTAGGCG", 0.138),
    ("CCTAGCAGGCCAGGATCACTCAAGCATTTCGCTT", -0.646),
    ("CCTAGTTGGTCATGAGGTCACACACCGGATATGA", 2.23),
]

Supply reported PBM binding z-score belonging to this sequence: "GCTCGGAGGAAAAGGTCAGAGCTTTGTCCGTAGA"
-0.551

Supply reported PBM binding z-score belonging to this sequence: "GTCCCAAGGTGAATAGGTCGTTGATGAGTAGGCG"
0.264

Supply reported PBM binding z-score belonging to this sequence: "TCTCGGAGGACACGAAGGTCGGAGCTTTCCAGAG"
-0.139

Supply reported PBM binding z-score belonging to this sequence: "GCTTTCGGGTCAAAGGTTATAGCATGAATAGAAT"
0.475

Supply reported PBM binding z-score belonging to this sequence: "ATCTCTAGGTAAAGAAAGTTCAGTGAATGCAAAT"
1.68

Supply reported PBM binding z-score belonging to this sequence: "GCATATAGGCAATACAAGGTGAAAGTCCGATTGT"
0.012

Supply reported PBM binding z-score belonging to this sequence: "GCATATAGGTAATACTAGGTGAAAGTCCGATTGT"
0.151

Supply reported PBM binding z-score belonging to this sequence: "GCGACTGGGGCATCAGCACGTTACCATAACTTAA"
-0.113

----------
# System: RARg:RXRa (NR concentration 270 nM, RXRa partner concentration 90 nM)
# procedure_summary: PBM binding z-score (relative to random genomic background probes); higher = stronger binding; sequences stand for … in GC…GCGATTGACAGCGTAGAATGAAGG
Consider the following partition of reported PBM binding z-score into named classes: low (below 0.9), middle (0.9 to below 4), high (4 or more)

# seq, category_label
measured = [
    ("ACTATTAGTTGACTTAGCGCAACCGATACGACGC", "low"),
    ("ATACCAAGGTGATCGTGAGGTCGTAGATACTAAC", "middle"),
    ("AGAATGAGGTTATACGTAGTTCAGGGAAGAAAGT", "middle"),
    ("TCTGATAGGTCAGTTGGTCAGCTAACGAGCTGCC", "middle"),
    ("CCAAGTTGGTCAAGGTCACACACGCTATAGGTAC", "high"),
    ("GCTTGTAGATCAAGGTTAAGCAAGACTAAGCTAA", "low"),
]

Sort into band: "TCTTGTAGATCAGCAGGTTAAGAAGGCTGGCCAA"
low

Sort into band: "AATAGTTGGTCAGCTGAGGTCACACACAATTCGG"
high

Sort into band: "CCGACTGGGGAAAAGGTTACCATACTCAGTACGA"
middle

Sort into band: "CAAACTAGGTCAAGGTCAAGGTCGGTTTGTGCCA"
high

Sort into band: "GCGACCGGGGCAAAGCAGGTTACCATAAGGTTGG"
middle

Sort into band: "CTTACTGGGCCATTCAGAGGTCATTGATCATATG"
high

----------
# Test system: VDR homodimer (NR concentration 270 nM)
# procedure_summary: PBM binding z-score (relative to random genomic background probes); higher = stronger binding; sequences stand for … in GC…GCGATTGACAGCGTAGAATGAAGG
Rule: PBM binding z-score of 0.3 or more gives Yes; anything lower gives No.

Past entries and their recorded results:
# seq, category_label
rows = [
    ("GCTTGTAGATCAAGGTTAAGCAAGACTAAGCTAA", "No"),
    ("TCATATAGGTACAGGTGAAAGTCGAACGATATGA", "Yes"),
    ("TCCAGTTGGTCAAAGGTCACACACTCGAAATGCG", "Yes"),
    ("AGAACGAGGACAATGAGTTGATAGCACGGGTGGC", "Yes"),
    ("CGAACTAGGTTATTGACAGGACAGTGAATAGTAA", "No"),
]

As a next step, examine the sequence that follows.
Would you say "CCTAACAGGCCAATCTGGGTCACTCAAGGCTTGA" shows PBM binding z-score at minimum 0.3?
No

----------
# System: LXRb:RXRa (NR concentration 270 nM, RXRa partner concentration 90 nM)
# procedure_summary: PBM binding z-score (relative to random genomic background probes); higher = stronger binding; sequences stand for … in GC…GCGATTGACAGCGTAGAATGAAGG
PBM binding z-score listing for selected sequences.
Give the value as a plain number.

Worked cases, PBM binding z-score given:
# seq, assay_target, PBM binding z-score
measured = [
    ("AGAATGACGTTATACGTAGATCAGGGAAGAAAGT", "LXRb:RXRa (NR concentration 270 nM, RXRa partner concentration 90 nM)", -0.753),
    ("CCGACTGTGGCATAAGGTTACCATAAGCCAGCCC", "LXRb:RXRa (NR concentration 270 nM, RXRa partner concentration 90 nM)", 1.07),
    ("GCTCGGAGGATAAGGTCAGAGCTTTGTCCGTAGA", "LXRb:RXRa (NR concentration 270 nM, RXRa partner concentration 90 nM)", 1.26),
]

Continue with the next sequence.
Specify PBM binding z-score for "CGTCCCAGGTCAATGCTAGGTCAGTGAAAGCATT" , system LXRb:RXRa (NR concentration 270 nM, RXRa partner concentration 90 nM).
3.02
